targetOrSystem: Mouse TMEM16A (Mus musculus)
Construct: expressed in transfected cells; host or cells: HEK-293T
Sequence (Q8BHY3 1-960): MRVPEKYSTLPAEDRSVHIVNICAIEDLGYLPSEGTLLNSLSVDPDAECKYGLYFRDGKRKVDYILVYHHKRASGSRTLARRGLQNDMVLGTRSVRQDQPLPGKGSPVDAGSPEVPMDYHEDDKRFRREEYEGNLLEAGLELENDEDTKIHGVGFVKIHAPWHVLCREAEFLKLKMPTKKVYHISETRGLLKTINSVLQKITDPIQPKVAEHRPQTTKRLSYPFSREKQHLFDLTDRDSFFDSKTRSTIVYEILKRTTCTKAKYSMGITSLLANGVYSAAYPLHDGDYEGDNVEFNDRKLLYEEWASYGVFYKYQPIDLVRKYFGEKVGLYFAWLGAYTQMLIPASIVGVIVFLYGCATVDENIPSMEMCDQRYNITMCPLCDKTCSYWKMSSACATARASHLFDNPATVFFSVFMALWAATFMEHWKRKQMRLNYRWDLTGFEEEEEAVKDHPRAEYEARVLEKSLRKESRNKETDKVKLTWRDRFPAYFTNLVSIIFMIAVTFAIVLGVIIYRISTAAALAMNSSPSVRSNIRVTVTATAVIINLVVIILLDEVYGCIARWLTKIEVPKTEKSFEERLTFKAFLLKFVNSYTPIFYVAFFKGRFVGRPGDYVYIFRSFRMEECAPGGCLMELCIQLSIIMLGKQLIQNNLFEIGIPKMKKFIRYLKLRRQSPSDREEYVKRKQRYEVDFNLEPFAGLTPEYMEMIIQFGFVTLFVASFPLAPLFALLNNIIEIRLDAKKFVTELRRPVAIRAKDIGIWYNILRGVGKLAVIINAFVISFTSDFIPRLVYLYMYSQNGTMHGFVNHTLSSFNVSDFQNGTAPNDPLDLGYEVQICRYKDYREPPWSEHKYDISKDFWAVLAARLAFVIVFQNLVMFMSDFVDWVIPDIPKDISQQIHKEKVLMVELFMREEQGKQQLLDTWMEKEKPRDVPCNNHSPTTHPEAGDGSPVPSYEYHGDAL
measurementProtocol: Time-course of current block analysed by Langmuir formalism (kon, koff), 12.5 μM [Ca2+]i
Type: cell-based
conditionDetails: Vm 120 mV, read-out: Ki calculated as koff/kon
assayMetric: pKi
Give only the number. pKi is defined as minus log10 of concentration in molar units.

Qu. Recorded pKi for `O=C(O)c1c2ccccc2cc2ccccc12` , please?
Ans. 4.72
